assay: Metabolic stability in human liver microsomes; conditions: pH 7.4
ENDPOINT_NAME: half-life at 0.5 μM (min)

[[record]]
chemical_structure = "Cc1ncc2n1-c1ccc(Cl)cc1C(c1ccccc1F)=NC2"
value_reported = 3.73

